Measured relative viability, listed per entry for reference.
Test system: COR-L 105
Test: relative viability (nuclei count vs DMSO), 5 days (fraction); higher = more cells survive
Conditions: first compound 0.253 µM

compound	relative viability
O=c1[nH]c2ccccc2n1C1CCN(CCCC(c2ccc(F)cc2)c2ccc(F)cc2)CC1 [Pimozide] + CS(=O)(=O)CCNCc1ccc(-c2ccc3ncnc(Nc4ccc(OCc5cccc(F)c5)c(Cl)c4)c3c2)o1 [Lapatinib] (partner 2 µM)	0.395
Cc1cnc(-c2cnc(NCCNc3ccc(C#N)cn3)nc2-c2ccc(Cl)cc2Cl)[nH]1 + CC(=O)Nc1cccc(-n2c(=O)n(C3CC3)c(=O)c3c(Nc4ccc(I)cc4F)n(C)c(=O)c(C)c32)c1 [Trametinib] (partner 0.02 µM)	0.383
Cc1cnc(-c2cnc(NCCNc3ccc(C#N)cn3)nc2-c2ccc(Cl)cc2Cl)[nH]1 + Cc1cc(Nc2cc(N3CCN(C)CC3)nc(Sc3ccc(NC(=O)C4CC4)cc3)n2)n[nH]1 [Tozasertib] (partner 0.1 µM)	0.327
O=c1[nH]c2ccccc2n1C1CCN(CCCC(c2ccc(F)cc2)c2ccc(F)cc2)CC1 [Pimozide] + CC(C)C[C@H](NC(=O)[C@H](Cc1ccccc1)NC(=O)c1cnccn1)B(O)O [Bortezomib] (partner 0.002 µM)	0.749

====

Test system: NCI-H2342
Assay: relative viability (nuclei count vs DMSO), 5 days (fraction); higher = more cells survive
Conditions: first compound 5 µM

compound	relative viability
O=C(O)CCCCC(CCSCc1ccccc1)SCc1ccccc1 (centres undefined) [CPI-613] + Cc1cc(Nc2cc(N3CCN(C)CC3)nc(Sc3ccc(NC(=O)C4CC4)cc3)n2)n[nH]1 [Tozasertib] (partner 0.1 µM)	0.523
O=C(O)CCCCC(CCSCc1ccccc1)SCc1ccccc1 (centres undefined) [CPI-613] + COc1cccc2cc(-c3nc([C@H]4CC[C@H](C(=O)O)CC4)n4ncnc(N)c34)[nH]c12 [OSI-027] (partner 0.5 µM)	0.568
O=C(O)CCCCC(CCSCc1ccccc1)SCc1ccccc1 (centres undefined) [CPI-613] + O=C(CCCCCCC(=O)Nc1ccccc1)NO [Vorinostat] (partner 1 µM)	0.648
O=C(O)CCCCC(CCSCc1ccccc1)SCc1ccccc1 (centres undefined) [CPI-613] + NC(=O)Nc1cc(-c2cccc(F)c2)sc1C(=O)N[C@H]1CCCNC1 [AZD7762] (partner 0.2 µM)	0.489

====

Tested on: NCI-H1650
Experiment: relative viability (nuclei count vs DMSO), 5 days (fraction); higher = more cells survive
Conditions: first compound 0.8 µM
endpoint-label: relative viability

compound	assay-target	readout-value
Cc1cnc(-c2cnc(NCCNc3ccc(C#N)cn3)nc2-c2ccc(Cl)cc2Cl)[nH]1 + COc1cc2c(Oc3ccc(NC(=O)C4(C(=O)Nc5ccc(F)cc5)CC4)cc3F)ccnc2cc1OCCCN1CCOCC1 [Foretinib] (partner 0.25 µM)	NCI-H1650	1.25
O=c1[nH]c2ccccc2n1C1CCN(CCCC(c2ccc(F)cc2)c2ccc(F)cc2)CC1 [Pimozide] + CS(=O)(=O)CCNCc1ccc(-c2ccc3ncnc(Nc4ccc(OCc5cccc(F)c5)c(Cl)c4)c3c2)o1 [Lapatinib] (partner 2 µM)	NCI-H1650	0.451
O=c1[nH]c2ccccc2n1C1CCN(CCCC(c2ccc(F)cc2)c2ccc(F)cc2)CC1 [Pimozide] + N=C(N)NC(=N)NCCc1ccccc1 [Phenformin] (partner 250 µM)	NCI-H1650	0.495
O=c1[nH]c2ccccc2n1C1CCN(CCCC(c2ccc(F)cc2)c2ccc(F)cc2)CC1 [Pimozide] + Cc1cc(Nc2cc(N3CCN(C)CC3)nc(Sc3ccc(NC(=O)C4CC4)cc3)n2)n[nH]1 [Tozasertib] (partner 0.1 µM)	NCI-H1650	0.475

====

Test system: LXF-289
Test: relative viability (nuclei count vs DMSO), 5 days (fraction); higher = more cells survive
Details: first compound 0.08 µM
Measured relative viability, listed per entry for reference.
endpoint-label: relative viability

compound	readout-value
O=c1[nH]c2ccccc2n1C1CCN(CCCC(c2ccc(F)cc2)c2ccc(F)cc2)CC1 [Pimozide] + Cc1cc(Nc2cc(N3CCN(C)CC3)nc(Sc3ccc(NC(=O)C4CC4)cc3)n2)n[nH]1 [Tozasertib] (partner 0.1 µM)	0.208
O=c1[nH]c2ccccc2n1C1CCN(CCCC(c2ccc(F)cc2)c2ccc(F)cc2)CC1 [Pimozide] + COc1cccc2cc(-c3nc([C@H]4CC[C@H](C(=O)O)CC4)n4ncnc(N)c34)[nH]c12 [OSI-027] (partner 0.5 µM)	0.693

====

System: EKVX
Assay: relative viability (nuclei count vs DMSO), 5 days (fraction); higher = more cells survive
Details: first compound 0.253 µM
endpoint-label: relative viability

compound	readout-value
O=c1[nH]c2ccccc2n1C1CCN(CCCC(c2ccc(F)cc2)c2ccc(F)cc2)CC1 [Pimozide] + CS(=O)(=O)CCNCc1ccc(-c2ccc3ncnc(Nc4ccc(OCc5cccc(F)c5)c(Cl)c4)c3c2)o1 [Lapatinib] (partner 2 µM)	0.177
O=c1[nH]c2ccccc2n1C1CCN(CCCC(c2ccc(F)cc2)c2ccc(F)cc2)CC1 [Pimozide] + CC(C)C[C@H](NC(=O)[C@H](Cc1ccccc1)NC(=O)c1cnccn1)B(O)O [Bortezomib] (partner 0.002 µM)	1.11

====

Measured relative viability, listed per entry for reference.
Tested on: NCI-H647
Experiment: relative viability (nuclei count vs DMSO), 5 days (fraction); higher = more cells survive
Details: first compound 0.08 µM

compound	relative viability
O=c1[nH]c2ccccc2n1C1CCN(CCCC(c2ccc(F)cc2)c2ccc(F)cc2)CC1 [Pimozide] + CC(C)C[C@H](NC(=O)[C@H](Cc1ccccc1)NC(=O)c1cnccn1)B(O)O [Bortezomib] (partner 0.002 µM)	1.08
O=c1[nH]c2ccccc2n1C1CCN(CCCC(c2ccc(F)cc2)c2ccc(F)cc2)CC1 [Pimozide] + CS(=O)(=O)CCNCc1ccc(-c2ccc3ncnc(Nc4ccc(OCc5cccc(F)c5)c(Cl)c4)c3c2)o1 [Lapatinib] (partner 2 µM)	1.18
O=c1[nH]c2ccccc2n1C1CCN(CCCC(c2ccc(F)cc2)c2ccc(F)cc2)CC1 [Pimozide] + Nc1nc2[nH]cc(CCc3ccc(C(=O)N[C@@H](CCC(=O)O)C(=O)O)cc3)c2c(=O)[nH]1 [Pemetrexed] (partner 0.2 µM)	0.186
O=c1[nH]c2ccccc2n1C1CCN(CCCC(c2ccc(F)cc2)c2ccc(F)cc2)CC1 [Pimozide] + Cc1nc(Nc2ncc(C(=O)Nc3c(C)cccc3Cl)s2)cc(N2CCN(CCO)CC2)n1 [Dasatinib] (partner 0.075 µM)	0.41

====

Test system: NCI-H2087
Assay: relative viability (nuclei count vs DMSO), 5 days (fraction); higher = more cells survive
Conditions: first compound 0.8 µM
Rule for this label: class 1 means relative viability is less than 0.4; class 0 means relative viability is at least 0.4.

compound	assigned-class
Cc1cnc(-c2cnc(NCCNc3ccc(C#N)cn3)nc2-c2ccc(Cl)cc2Cl)[nH]1 + Nc1nc2[nH]cc(CCc3ccc(C(=O)N[C@@H](CCC(=O)O)C(=O)O)cc3)c2c(=O)[nH]1 [Pemetrexed] (partner 0.2 µM)	class 0
O=c1[nH]c2ccccc2n1C1CCN(CCCC(c2ccc(F)cc2)c2ccc(F)cc2)CC1 [Pimozide] + CS(=O)(=O)N1CCN(Cc2cc3nc(-c4cccc5[nH]ncc45)nc(N4CCOCC4)c3s2)CC1 [Pictilisib] (partner 1 µM)	class 0
Cc1cnc(-c2cnc(NCCNc3ccc(C#N)cn3)nc2-c2ccc(Cl)cc2Cl)[nH]1 + CCNC(=O)c1noc(-c2cc(C(C)C)c(O)cc2O)c1-c1ccc(CN2CCOCC2)cc1 [Luminespib] (partner 0.01 µM)	class 1
Cc1cnc(-c2cnc(NCCNc3ccc(C#N)cn3)nc2-c2ccc(Cl)cc2Cl)[nH]1 + N=C(N)NC(=N)NCCc1ccccc1 [Phenformin] (partner 250 µM)	class 0
Cc1cnc(-c2cnc(NCCNc3ccc(C#N)cn3)nc2-c2ccc(Cl)cc2Cl)[nH]1 + NC(=O)Nc1cc(-c2cccc(F)c2)sc1C(=O)N[C@H]1CCCNC1 [AZD7762] (partner 0.2 µM)	class 0
Cc1cnc(-c2cnc(NCCNc3ccc(C#N)cn3)nc2-c2ccc(Cl)cc2Cl)[nH]1 + CC(=O)c1c(C)c2cnc(Nc3ccc(N4CCNCC4)cn3)nc2n(C2CCCC2)c1=O [Palbociclib] (partner 0.5 µM)	class 1
O=c1[nH]c2ccccc2n1C1CCN(CCCC(c2ccc(F)cc2)c2ccc(F)cc2)CC1 [Pimozide] + CS(=O)(=O)CCNCc1ccc(-c2ccc3ncnc(Nc4ccc(OCc5cccc(F)c5)c(Cl)c4)c3c2)o1 [Lapatinib] (partner 2 µM)	class 0

====

Tested on: H3255
Test: relative viability (nuclei count vs DMSO), 5 days (fraction); higher = more cells survive
Details: first compound 2.53 µM
Rule for this label: YES means relative viability is less than 0.6; NO means relative viability is at least 0.6.

molecule	assigned-class
O=c1[nH]c2ccccc2n1C1CCN(CCCC(c2ccc(F)cc2)c2ccc(F)cc2)CC1 [Pimozide] + O=C(CCCCCCC(=O)Nc1ccccc1)NO [Vorinostat] (partner 1 µM)	NO
O=c1[nH]c2ccccc2n1C1CCN(CCCC(c2ccc(F)cc2)c2ccc(F)cc2)CC1 [Pimozide] + CC(=O)Nc1cccc(-n2c(=O)n(C3CC3)c(=O)c3c(Nc4ccc(I)cc4F)n(C)c(=O)c(C)c32)c1 [Trametinib] (partner 0.02 µM)	YES
Cc1cnc(-c2cnc(NCCNc3ccc(C#N)cn3)nc2-c2ccc(Cl)cc2Cl)[nH]1 + Nc1nc2[nH]cc(CCc3ccc(C(=O)N[C@@H](CCC(=O)O)C(=O)O)cc3)c2c(=O)[nH]1 [Pemetrexed] (partner 0.2 µM)	YES
Cc1cnc(-c2cnc(NCCNc3ccc(C#N)cn3)nc2-c2ccc(Cl)cc2Cl)[nH]1 + CC(=O)Nc1cccc(-n2c(=O)n(C3CC3)c(=O)c3c(Nc4ccc(I)cc4F)n(C)c(=O)c(C)c32)c1 [Trametinib] (partner 0.02 µM)	NO
O=c1[nH]c2ccccc2n1C1CCN(CCCC(c2ccc(F)cc2)c2ccc(F)cc2)CC1 [Pimozide] + C[C@]1(O)C[C@@H](c2nc(-c3ccc4ccc(-c5ccccc5)nc4c3)c3c(N)nccn32)C1 [Linsitinib] (partner 1 µM)	NO
Cc1cnc(-c2cnc(NCCNc3ccc(C#N)cn3)nc2-c2ccc(Cl)cc2Cl)[nH]1 + CC(C)C[C@H](NC(=O)[C@H](Cc1ccccc1)NC(=O)c1cnccn1)B(O)O [Bortezomib] (partner 0.002 µM)	NO
O=c1[nH]c2ccccc2n1C1CCN(CCCC(c2ccc(F)cc2)c2ccc(F)cc2)CC1 [Pimozide] + Nc1nc2[nH]cc(CCc3ccc(C(=O)N[C@@H](CCC(=O)O)C(=O)O)cc3)c2c(=O)[nH]1 [Pemetrexed] (partner 0.2 µM)	YES
